experiment: NCI Yeast Anticancer Drug Screen. Data for the cln2 rad14 strain (AID 165);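 also: 0% = growth equal to vehicle treated cultures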; settings: S. cerevisiae cln2 rad14 strain, at 5.0 µM (retest, dose inferred, filed as 0.5), hits give high values
About 79,000 compounds went through this panel and 15% of them were active in at least one assay; those are over-represented in the sample as a whole.
The following compounds are shown together with reported growth inhibition values.
Please reply with the bare figure in % and do not write the unit itself.

Answered cases to consult:
>>> experimental_result("CNC1C(OC2C(OC3C(O)C(O)C(N=C(N)N)C(O)C3N=C(N)N)OC(C)C2(O)CO)OC(CO)C(O)C1O (centres undefined)")
11
>>> experimental_result("O=C1C=CC(=O)N1c1ccc2c(c1)Cc1cc(NC(=O)C(F)(F)F)ccc1-2")
10
>>> experimental_result("S=C(Nc1ccc(Cl)cc1)SC1CCCCC1")
-6
>>> experimental_result("CCCCCCCCCCCCCC[N+](C)(CC(=O)[O-])Cc1ccccc1 (centres undefined)")
9
>>> experimental_result("O=C(CCCN1CCC2(CC1)CC(=O)N(N1CCCCCC1)C2=O)c1ccc(F)cc1")
63

If you can, please state the reported growth inhibition value of C/C(=N\O)C1CC2C=C(C#N)C1N(Cc1ccccc1)C2 (centres undefined) .
-1

If you can, please state the reported growth inhibition value of `N/C(=N\OC(=O)NC(Cl)=C(Cl)Cl)c1cc(C(F)(F)F)cc(C(F)(F)F)c1` .
45

If you can, please state the reported growth inhibition value of `C#CCCCc1ccccc1` .
17
